Reference for the values: the supplement of paper PMC10567573

B1: SAT2 (parent)
chain: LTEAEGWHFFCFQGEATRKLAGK

Variants of: B1
Test: protein stability index of a GFP-peptide fusion (GPS, HEK-293T) (PSI 1-6); higher = more stable;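 note: lentivirally expressed fusions sorted by FACS into six bins by GFP to DsRed ratio, PSI derived from sequencing read proportions per bin multiplied by bin number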
Settings: c terminus: native
Decide by protein stability index: equal to or exceeding 3 means Yes, less means No.

Example results:
Hi team, for E3A , is the recorded protein stability index at or above 3? No

Lookup F10C No

Lookup A4Q No

Lookup T17Y No

Lookup F9S Yes

Lookup T17E No

Lookup C11D Yes

Lookup E15P No

Lookup R18V No

Lookup F12G Yes

Others:
Hi team, for R18Y , is the recorded protein stability index at or above 3? No

Lookup F9G Yes

Lookup E5A No
